Measured values drawn from ChEMBL document CHEMBL1138049 for this set.

target: Thyrotropin receptor (Homo sapiens); assay: Agonist activity at TSHR expressed in HEK293 EM cells measured by intracellular cAMP accumulation relative to TSH; format: functional, cell-based
Use class 1 when the recorded Efficacy is no lower than 3%; use class 0 when it is lower.

Please review the following examples before continuing.
{"smiles input": "CCOC(=O)c1sc2nc(SC)nc(-c3cccc(OC)c3)c2c1N", "answer label": "class 0"}
{"smiles input": "CSc1nc(-c2cccc(F)c2)c2c(N)c(C(=O)NC(C)(C)C)sc2n1", "answer label": "class 1"}
{"smiles input": "COc1cccc(-c2nc(SC)nc3sc(C(=O)NN)c(N)c23)c1", "answer label": "class 1"}

Data request: Record `COc1cccc(-c2nc(SC)nc3sc(C(=O)NCCc4ccccc4)c(N)c23)c1` ; criterion: Efficacy no lower than 3%. Met?
Data returned: class 1
